FYI, the data here is from PubChem BioAssay (NCI).

MEASUREMENT NOTES: NCI Yeast Anticancer Drug Screen. Data for the rad18 strain (AID 177)
ASSAY CONDITIONS: S. cerevisiae rad18 mutant growth inhibition; at 11.0 µM; hits give high values
About 79,000 compounds went through this panel and 15% of them were active in at least one assay; those are over-represented in the sample as a whole.
MEASURED QUANTITY: growth inhibition (%)
Give the quantity in %, number only.

// known answers, use as guide
O=C(O)CNC(=S)Nc1ccccc1	-21
CN(C)CCCCN1c2ccccc2Sc2ccc(N=[N+]=[N-])cc21	24
c1ccc(CCN2CCc3ccccc3C2)cc1	8
O=c1c2ccccc2nc(-c2ccccc2)n1O	89
CCCCc1nnc(NS(=O)(=O)c2ccc(C)cc2)s1	15

// query Can you share its growth inhibition? I mean this molecule: COC(C(O)CO)C(O)C(O)C(=O)NNc1ccccc1 (stereo unspecified)
// result 79

// query # get_value(readout='growth inhibition', item= O=C(c1ccc([N+](=O)[O-])cc1)C1N=NCC1c1ccccc1 (stereo unspecified) )
// result 7

// query Quick one: growth inhibition for O=C1N=C2SC=C(NC(=S)Nc3ccccc3)N2NC12c1ccccc1-c1ccccc12 ?
// result 24

// query What growth inhibition value was documented for this molecule, CCCCCCCCCCCC1=NCCO1 ?
// result 5

// query Would you mind telling me what growth inhibition value was observed for O=C1Nc2ccc(Br)cc2C1=Nc1ccc2c(c1)OCO2 ?
// result -42

// query Any idea what growth inhibition was measured for C=C1CCC(O)C/C1=C/C=C1\CCCC2(C)C1CCC2C(C)CCCC(C)C (stereo unspecified) ?
// result -8
